B1: GLT8D2 (parent)
chain: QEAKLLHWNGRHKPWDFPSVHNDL

- Variants of: B1
- Test: protein stability index of a GFP-peptide fusion (GPS, HEK-293T) (PSI 1-6); higher = more stable;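 note: lentivirally expressed fusions sorted by FACS into six bins by GFP to DsRed ratio, PSI derived from sequencing read proportions per bin multiplied by bin number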
- Conditions: c terminus: a fixed tail appended
# key: entry, value: protein stability index
Enter a number only.

Previously resolved entries follow.
N9M ... 2.1
A3P ... 2.33
S19K ... 2.6
G10T ... 2.49
N22H ... 2.47

// below: protein stability index requested for another variant
Determine from records and report protein stability index for V20I
2.78
